- Test system: HEK293-6E cells
- Experiment Description: Trypan blue cell viability assay
- Type: cell-based
- Measurement Conditions: 10 μM Hit compound, 3 h incubation
Endpoint Name: Effect on HEK293-6E cell viability

Lookup result for CC(C)(Sc1ccc(CCN(CCCCC2CCCCC2)C(=O)NC2CCCCC2)cc1)C(=O)O [GW7647] ; measured Effect on HEK293-6E cell viability: dramatically reduced

# Effect on HEK293-6E cell viability (compound: Clc1ccc(C(c2ccc(Cl)cc2)n2cc[n+](CC(OCc3ccc(Cl)cc3Cl)c3ccc(Cl)cc3Cl)c2)cc1 (stereo not shown) [calmidazolium] ) is dramatically reduced

Note to self: Effect on HEK293-6E cell viability recorded for CCCCCCCCCCCCCCCC(=O)OC(CC(=O)[O-])C[N+](C)(C)C (racemic) [palmitoyl-DL-carnitine] was dramatically reduced

---

- System Tested: binding of the mutant β-III-spectrin L253P ABD to F-actin (Homo sapiens, UniProt O15020, L253P)
- Construct: the β-III-spectrin (human) ABD residues 1 to 284; expressed in transfected cells; host or cells: HEK293-6E (pTT5 vector, transient transfection)
- Sequence (O15020 1-284 L253P): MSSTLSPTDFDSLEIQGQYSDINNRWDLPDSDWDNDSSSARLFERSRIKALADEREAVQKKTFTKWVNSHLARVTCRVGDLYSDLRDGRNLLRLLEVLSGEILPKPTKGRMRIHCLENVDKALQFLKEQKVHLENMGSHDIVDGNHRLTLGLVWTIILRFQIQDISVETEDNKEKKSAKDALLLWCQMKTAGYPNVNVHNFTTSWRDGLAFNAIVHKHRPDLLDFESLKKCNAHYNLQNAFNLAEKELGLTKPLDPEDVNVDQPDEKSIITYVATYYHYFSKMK
- Experiment Description: Primary live-cell FRET assay (GFP-ABD-L253P + Lifeact-mCherry) in HEK293-6E cells
- Format: cell-based
- Measurement Conditions: LOPAC Hits (10 μM screen, 4SD threshold, 120 min) and dose response
Endpoint Name: Effect of Hit compound on primary FRET

Query CCOc1nc2cccc(C(=O)O)c2n1Cc1ccc(-c2ccccc2-c2nnn[nH]2)cc1 [candesartan] yields Effect of Hit compound on primary FRET of decrease FRET

Summary for this molecule, Clc1ccc(C(c2ccc(Cl)cc2)n2cc[n+](CC(OCc3ccc(Cl)cc3Cl)c3ccc(Cl)cc3Cl)c2)cc1 (stereo not drawn) [calmidazolium] : Effect of Hit compound on primary FRET is decrease FRET

Field Effect of Hit compound on primary FRET (entry Cc1cc2c(C(C)C)c(O)c(O)c(C=O)c2c(O)c1-c1c(C)cc2c(C(C)C)c(O)c(O)c(C=O)c2c1O [gossypol] ) reads decrease FRET

---

- System Tested: ABD L253P (Homo sapiens, UniProt O15020, L253P)
- Construct: the β-III-spectrin (human) ABD residues 1 to 284; His-SUMO (cleaved yes); made in house; host or cells: E. coli BL21(DE3), vector pE-SUMOpro
- Experiment Description: Sedimentation of ABD L253P without actin (aggregation)
- Measurement Conditions: 10 μM Hit compound, n = 4
Endpoint Name: Effect on ABD pelleting without actin (aggregation)

For this compound ( Cc1cc2c(C(C)C)c(O)c(O)c(C=O)c2c(O)c1-c1c(C)cc2c(C(C)C)c(O)c(O)c(C=O)c2c1O [gossypol] ), measured Effect on ABD pelleting without actin (aggregation) is promote aggregation

// Effect on ABD pelleting without actin (aggregation) value for CC(C)(Sc1ccc(CCN(CCCCC2CCCCC2)C(=O)NC2CCCCC2)cc1)C(=O)O [GW7647] : promote aggregation
